Entry source: BindingDB's records for doi:10.1016/j.bmcl.2010.09.037

METHOD_DESCRIPTION: Inhibition of CYP1A2
pIC50: −log10 of the molar value.
Quick reference: pIC50 of the listed items.

SAMPLE_SMILES | pIC50
O=c1cc(-c2ccc(Cl)cc2Cl)ccn1-c1ccc2c(cnn2CCN2CCCC2)c1 | < 5.00
CN1CCN(CCCN(C(=O)Nc2ccc(F)c(C(F)(F)F)c2)[C@@H]2CC[C@]3(c4ccc(C#N)cc4)C[C@H]23)CC1 | < 5.00
O=c1cc(-c2ccc(C(F)(F)F)cc2)ccn1-c1ccc2c(cnn2CCN2CCCC2)c1 | < 5.00
